Molecular target: Man(a1-2)Man(a1-3)[Man(a1-2)Man(a1-6)]Man(a1-6)[Man(a1-2)Man(a1-2)Man(a1-3)]Man
Assay: glycan array binding signal (z-score within array); higher = stronger binding
Settings: glycan notation: IUPAC condensed, linker removed
The sample as a whole holds a higher share of the strongest signals than the screen did.
Recorded glycan array binding signal (z-score) for the following binders
OBSERVATION TYPE: glycan array binding signal (z-score)

>>> value_reported("BC2L-A (Burkholderia cenocepacia), Q1BKJ8_BURCA (protein) ADSQTSSNRAGEFSIPPNTDFRAIFFANAAEQQHIKLFIGDSQEPAAYHKLTTRDGPREATLNSGNGKIRFEVSVNGKPSATDARLAPINGKKSDGSPFTVNFGIVVSEDGHDSDYNDGIVVLQWPIG")
4.82
>>> value_reported("Aap lectin (Staphylococcus epidermidis) (protein) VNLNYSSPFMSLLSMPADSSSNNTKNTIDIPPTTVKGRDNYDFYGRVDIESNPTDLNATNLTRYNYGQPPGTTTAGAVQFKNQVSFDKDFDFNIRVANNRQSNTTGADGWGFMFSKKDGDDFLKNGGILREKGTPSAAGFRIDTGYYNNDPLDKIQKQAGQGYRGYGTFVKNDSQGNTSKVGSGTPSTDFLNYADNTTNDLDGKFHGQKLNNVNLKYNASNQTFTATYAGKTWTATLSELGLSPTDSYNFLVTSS")
-0.858

// data source = the supplement of paper PMC8728848
